TGI values, listed per item
tested on: SW-620 colon; assay: NCI tumour cell line growth inhibition, 48 h

// worked examples, TGI included
>>> result("COC(=O)CNC(=O)CSc1nnc(COc2ccc(Cl)cc2)n1-c1ccccc1")
"> 100 µM"
>>> result("CC1(C)CN(CCNc2nccc(-c3c(-c4cccc(O)c4)nc4sccn34)n2)S(=O)(=O)N1")
"> 33.2 µM"
>>> result("COc1ccc(C(Nc2ccccn2)c2cc(C(C)(C)C)cc(C(C)(C)C)c2O)cc1 (stereo not given)")
"> 100 µM"
>>> result("CN(C(=O)c1ccccc1)c1ccc2c(c1)C(=O)c1ccccc1C2=O")
"> 100 µM"

Let us examine a further case.
Quick note, TGI for Cc1cn(C2CC(O)C(COC(N)=O)O2)c(=O)[nH]c1=O (stereo not given) landed at > 100 µM

----------
Recorded TGI for the following molecules
test system: SK-MEL-28 melanoma; assay: NCI tumour cell line growth inhibition, 48 h

# count of solved cases: 8
>>> result("Oc1cc(O)c2c(c1)OC(c1ccc(O)c(O)c1)C(O)C2c1c(O)cc(O)c2c1OC(c1ccc(O)c(O)c1)C(O)C2 (stereo not given)")
"> 100 µM"
>>> result("CCOC(=O)CCc1ccc(NC(=O)/C=C/c2ccc([N+](=O)[O-])o2)cc1")
"3.39 µM"
>>> result("O=C1CCc2ccc(O)c(c2)Oc2ccc(cc2)[C@@H]2O[C@@H]2CO1")
"> 100 µM"
>>> result("c1ccc(/C(=N\\Nc2nc3ccccc3s2)c2ccccn2)cc1")
"> 100 µM"
>>> result("C=C1C(C(=O)O)C1C(=O)O (stereo not given)")
"> 100 µM"
>>> result("CN1N=C(c2ccccc2)c2cc(Cl)ccc2N=C1N/N=C/c1ccc(N(C)C)cc1")
"> 100 µM"
>>> result("CC(=O)OCC1OC(n2c(O)c(N=NC(N)=S)c3ccc([N+](=O)[O-])cc32)C(OC(C)=O)C1OC(C)=O (stereo not given)")
"> 100 µM"
>>> result("N#CC1=C(c2ccccc2)OC2(N)OC(c3ccccc3)=C(C#N)C12C#N (stereo not given)")
"> 100 µM"

TGI for Cc1cn(C2CC(O)C(COC(N)=O)O2)c(=O)[nH]c1=O (stereo not given) is > 100 µM

Entry COc1nc2c(c(=O)[nH]1)N=C(c1ccc(Cl)cc1)CC(c1ccccc1)N2 (stereo not given) ; TGI = 54.1 µM

----------
Measured TGI by item
tested on: HCC-2998 colon; experiment: NCI tumour cell line growth inhibition, 48 h

>>> result("CCC(C)C(=O)OC1CCC=C2C=CC(C)C(CCC3CC(O)CC(=O)O3)C21 (stereo not given)")
"> 100 µM"
>>> result("CN1CCN(Cc2ccccc2)CC1CC#N (stereo not given)")
"> 100 µM"
>>> result("N#CCC(=O)Nc1ccccc1O")
"> 100 µM"
>>> result("CCOC(OC1=C(C#N)CCCC1)C(CC)[Se]c1ccccc1[N+](=O)[O-] (stereo not given)")
"45.9 µM"

The compound COc1ccc(NC(=O)c2cccc(C3CCc4c(cc(OC)c(OC)c4OC)O3)c2)cc1 (stereo not given) showed TGI equal to > 100 µM

TGI in this record for OCC1OC(n2cnc3c(NCc4ccco4)ncnc32)C(O)C1O (stereo not given) : 40 µM

Looking up CC(C)(C)OC(=O)N1Cc2cc3ccccc3nc2C1CO (stereo not given) , I see its TGI listed as > 100 µM

The measured TGI associated with C1=C\CCCCN2CC[C@H]3[C@H](CCCC/C=C\CCCN4C[C@@H](CCCCC/1)C[C@@H]3C4)C2 reads 7.6 µM

For Cc1ccc2c(c1)CC1(C2)Cc2ccc(C)cc2C1=O (stereo not given) the compound record lists TGI as 85 µM

The recorded TGI for COc1cc(C(=O)OC2CC34CCNC35CC(OC5(OC)C2O)c2cc3c(cc24)OCO3)ccc1O (stereo not given) is > 100 µM

compound CCOc1nc2sc3c(c2c(=O)n1CCSSCCn1c(OCC)nc2sc4c(c2c1=O)CCCC4)CCCC3 , TGI observed: > 100 µM

The compound listed as Cc1cc(OCc2nn(CN3CCN(C)CC3)c(=S)n2/N=C/c2ccc(F)cc2)ccc1Cl shows TGI equal to 33.1 µM

Documented TGI of O=C(Nc1ccc(Cl)cc1)N1CCN(c2ccc3nncn3n2)CC1 : > 100 µM

CCCC(C(=O)Nc1cccc2[nH]cnc12)C(=O)OCC (stereo not given) has a reported TGI of > 100 µM

For this compound ( O=C(O)CCSC(=O)Nc1ccccc1 ), measured TGI is > 100 µM

----------
tested on: HL-60(TB) leukemia; test: NCI tumour cell line growth inhibition, 48 h
Measurement Label: TGI

Query NC(Cc1c[nH]c2cccc(F)c12)C(=O)O (stereo unspecified) yields TGI of > 4500 µM

Cc1cc(S(=O)(=O)NC2=NCC(C)(C)CN2)c(S)cc1Cl has a reported TGI of 62.1 µM

Value of measured TGI for the entry O=C(CCl)Nc1ccc(Cc2ccc(NC(=O)CCl)cc2)cc1 : 4.84 µM

Reported TGI of CCc1ccccc1NC(=O)C(=O)C(C#N)c1c(Cl)cccc1Cl (stereo unspecified) : > 100 µM

----------
system: SNB-75 CNS; test: NCI tumour cell line growth inhibition, 48 h
Measurement Label: TGI (µM)
Only the number, expressed in µM, is required.

>>> result("CN(C)C/C=C/C(=O)Nc1cc2c(Nc3cccc(Cl)c3F)ncnc2cc1OCCOC(F)F")
3.79
>>> result("COc1cc2c(cc1OC)[C@H]1C(COC(=O)Nc3ccccc3)CN1CC2 (some centres not stated)")
79.3

// field: TGI; key: CCC(C(=O)[C@@H](C)[C@@H](O)[C@H](C)[C@@H]1O[C@@H]([C@@H](CC)C(=O)ONC(=O)c2ccccc2)CC[C@@H]1C)[C@H]1O[C@]2(C=CC(=O)[C@]3(CC[C@@](C)([C@H]4CC[C@](O)(CC)[C@H](C)O4)O3)O2)[C@H](C)C[C@@H]1C (some centres not stated) ; value = 2.04

What the record says about NC(=O)c1ncn2c(=O)n(CCCl)nnc12 : TGI is 205

For record O=C1c2c(O)cccc2Cc2cc(CO)cc(O)c21 the listed TGI is 5.44

----------
tested on: OVCAR-4 ovarian; assay: NCI tumour cell line growth inhibition, 48 h
Measurement Label: TGI

>>> result("O=C(O)c1[nH]c2c([N+](=O)[O-])cc([N+](=O)[O-])cc2c1C(=O)O")
"> 100 µM"
>>> result("NC(Cc1c[nH]c2cccc(F)c12)C(=O)O (stereo not given)")
"> 4500 µM"
>>> result("CC(C)(C)OC(=O)N1Cc2cc3ccccc3nc2C1CO (stereo not given)")
"> 100 µM"
>>> result("Nc1cc(N)c2nc(-c3ccccc3)c(NCc3ccc(Cl)c(Cl)c3)nc2c1")
"> 100 µM"
>>> result("O=C(NCc1ccccc1)C1C(=O)C(=O)N(Cc2ccccc2)C1=O (stereo not given)")
"> 100 µM"

Log: OVCAR-4 ovarian, compound CCOC(=O)c1cc2c(n1Cc1cc(OC)cc(OC)c1)-c1oncc1CC2 , TGI = > 100 µM

TGI of Cc1ccc(S(=O)(=O)NNC(=O)Nc2ccc([N+](=O)[O-])cc2)cc1 , assay on OVCAR-4 ovarian, is 89.4 µM

# lookup: NC(=O)c1ncn2c(=O)n(CCCl)nnc12 on OVCAR-4 ovarian, TGI = 437 µM

----------
tested on: BT-549 breast; test: NCI tumour cell line growth inhibition, 48 h
// TGI lookup, one value per entry

>>> result("N[C@H]1CCN(c2c(F)cc3c(=O)c(C(=O)O)cn4c3c2Oc2c-4ccc3c2ccc2ccccc23)C1")
"> 69.3 µM"
>>> result("Cc1cn2c(/C=C3\\C(=O)N(C)c4ccc(Cl)cc43)c(C)nc2s1")
"> 100 µM"
>>> result("Cc1ccc2c(c1)C(O)(c1ccccc1)CCS2 (stereo not given)")
"93.6 µM"
>>> result("O=C(CC1Sc2ccccc2NC1=O)NNc1ccc(F)cc1 (stereo not given)")
"> 100 µM"

response.value for CCCCNCCCCCNc1cc(OC)cc2cccnc12 (field: TGI) = 28.8 µM

Measured TGI, COc1cc(OC)nc(-n2c(N)c(C(=O)O)c3ccc([N+](=O)[O-])cc3c2=O)n1 : > 100 µM

// recorded TGI for Cc1nn(C(=O)c2ccc(Cl)cc2)c2c1C(c1ccc(Cl)cc1)SC(N)=N2 (stereo not given) : > 10 µM

Briefly, TGI measured for CCOC(=O)C1=NNC(C(=O)c2ccccc2)C1c1ccccc1 (stereo not given) : 4.37 µM

Summary for this compound, c1cc2c3ccsc3c3sccc3c2s1 : TGI is > 100 µM

TGI recorded for this compound, COC(=O)c1cc2c(cc1C(=O)OC)[C@@]1(C)CCCC(C)(C)C1CC2 (stereo not given in full) , is 85.9 µM

Kindly note the recorded TGI for C[C@]12CC[C@H](O)CC1=CC[C@@H]1[C@@H]2CC[C@]2(C)NC(=O)/C(=C\c3ccccc3)C[C@@H]12 , which is 32.7 µM

Noted for CC(=O)/C=C/c1ccc(N(CCO)Cc2ccc(C(C)(C)C)cc2)cc1 : its TGI reads 178 µM

Value of measured TGI for the entry COc1cc(NCCC2CCCCN2)c2ncccc2c1OC (stereo not given) : 34.8 µM

The recorded TGI for S=C1Cc2c(-c3ccccc3)cc(-c3ccc(Cl)cc3)nc2-c2ccccc2N1 is 37.9 µM

Just so you know, measured TGI for CCOC(=O)c1cc2c(n1Cc1ccccc1OC)-c1oncc1CCC2 came out at > 100 µM

Provenance of the data: PubChem BioAssay (NCI)
